target: recombinant, membrane-bound mPGES-1 (Homo sapiens, UniProt O14684); experiment: Thiobarbituric acid assay (TBA-MDA assay), inhibition of mPGES-1; settings: remaining PGH2 measured at 535 nm
pIC50: −log10 of the molar value.

# Compound, pIC50
rows = [
    ("CN(C)c1ccccc1CNC(=O)c1cccc(NC(=O)c2ccccc2C(F)(F)F)c1", 6.33),
    ("CC(=O)Oc1ccccc1C(=O)Nc1cccc(C(=O)NC2CCCCCC2)c1", 5.00),
    ("COc1cccc(OC)c1C(=O)Nc1cccc(C(=O)NC2CCCCCC2)c1", 5.16),
    ("O=C(NC1CCc2ccccc21)c1cccc(NC(=O)c2ccccc2Cl)c1 (stereo not drawn)", 6.14),
    ("CC(=O)Oc1ccccc1C(=O)Nc1cccc(C(=O)Nc2ccc3ccccc3n2)c1", 5.52),
    ("COc1cccc(OC)c1C(=O)Nc1cccc(C(=O)N[C@H](C)c2cccc3ccccc23)c1", 5.89),
    ("O=C(Nc1ccc2ccccc2n1)c1cccc(NC(=O)c2ccccc2-c2cccs2)c1", 5.92),
    ("CCCCNC(=O)c1cccc(NC(=O)c2ccccc2Cl)c1", 5.41),
    ("O=C(NCc1ccccc1Cl)c1cccc(NC(=O)c2ccccc2C(F)(F)F)c1", 6.66),
]

---

Known IC50 of a selection of compounds
Target: recombinant, membrane-bound mPGES-1 (Homo sapiens)
Sequence (O14684 1-152): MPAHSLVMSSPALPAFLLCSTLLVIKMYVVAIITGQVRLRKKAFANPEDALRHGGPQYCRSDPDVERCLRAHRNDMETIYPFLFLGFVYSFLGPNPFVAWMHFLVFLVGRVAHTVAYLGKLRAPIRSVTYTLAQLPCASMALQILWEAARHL
Assay: Thiobarbituric acid assay (TBA-MDA assay), inhibition of mPGES-1
Conditions: remaining PGH2 measured at 535 nm

# Entry Smiles, System Name, Measurement Unit, IC50
measured = [
    ("CCc1ccccc1C(=O)Nc1cccc(C(=O)Nc2ccc3ccccc3n2)c1", "recombinant, membrane-bound mPGES-1 (Homo sapiens)", "nM", 6900),
    ("C[C@H](NC(=O)c1cccc(NC(=O)c2ccccc2Br)c1)c1cccc2ccccc12", "recombinant, membrane-bound mPGES-1 (Homo sapiens)", "nM", 230),
    ("O=C(NCc1cccc2ccccc12)c1cccc(NC(=O)c2ccccc2C(F)(F)F)c1", "recombinant, membrane-bound mPGES-1 (Homo sapiens)", "nM", 130),
    ("C[C@H](NC(=O)c1cccc(NC(=O)c2ccccc2I)c1)c1cccc2ccccc12", "recombinant, membrane-bound mPGES-1 (Homo sapiens)", "nM", 200),
]

---

The entries below come with measured IC50 values attached.
Biological target: recombinant, membrane-bound mPGES-1 (Homo sapiens, UniProt O14684)
Sequence (O14684 1-152): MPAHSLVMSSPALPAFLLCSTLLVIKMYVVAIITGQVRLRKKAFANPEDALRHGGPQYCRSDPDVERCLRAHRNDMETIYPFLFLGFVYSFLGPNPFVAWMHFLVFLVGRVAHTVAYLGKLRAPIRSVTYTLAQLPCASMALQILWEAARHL
Assay: Thiobarbituric acid assay (TBA-MDA assay), inhibition of mPGES-1
Conditions: remaining PGH2 measured at 535 nm
Measured Quantity: IC50 (nM)

# Compound, Measured Quantity, Measurement Unit, Value Observed
data = [
    ("O=C(Nc1cccc(C(=O)NC2CCCCCC2)c1)c1cc(C(F)(F)F)cc(C(F)(F)F)c1", "IC50", "nM", 1200),
    ("O=C(Nc1ccc2ccccc2n1)c1cccc(NC(=O)c2ccccc2Cl)c1", "IC50", "nM", 600),
    ("O=C(NC1CCCc2ccccc21)c1cccc(NC(=O)c2ccccc2Cl)c1 (centres unmarked)", "IC50", "nM", 860),
    ("O=C(Nc1cccc(C(=O)Nc2ccc3ccccc3n2)c1)c1cccc(Cl)c1", "IC50", "nM", 4200),
    ("COc1cccc(OC)c1C(=O)Nc1cccc(C(=O)Nc2ccc3ccccc3n2)c1", "IC50", "nM", 3100),
    ("O=C(Nc1ccc2ccccc2n1)c1cccc(NC(=O)c2ccccc2[N+](=O)[O-])c1", "IC50", "nM", 500),
    ("O=C(NCc1ccccc1C(F)(F)F)c1cccc(NC(=O)c2ccccc2C(F)(F)F)c1", "IC50", "nM", 70),
    ("O=C(Nc1ccccn1)c1cccc(NC(=O)c2ccccc2Cl)c1", "IC50", "nM", 1300),
    ("O=C(NCc1cccc2ccccc12)c1cccc(NC(=O)c2c(Cl)cccc2Cl)c1", "IC50", "nM", 520),
    ("C[C@H](NC(=O)c1cccc(NC(=O)c2c(Cl)cccc2Cl)c1)c1cccc2ccccc12", "IC50", "nM", 470),
    ("O=C(NCc1cccc2ccccc12)c1cccc(NC(=O)c2ccccc2F)c1", "IC50", "nM", 1100),
    ("O=C(Nc1cccc(CNCc2ccccc2C(F)(F)F)c1)c1ccccc1C(F)(F)F", "IC50", "nM", 1800),
    ("C[C@@H](NC(=O)c1cccc(NC(=O)c2ccccc2Cl)c1)c1cccc2ccccc12", "IC50", "nM", 290),
    ("O=C(Nc1ccc2cccc(O)c2n1)c1cccc(NC(=O)c2ccccc2C(F)(F)F)c1", "IC50", "nM", 1900),
    ("O=C(NCc1ccccc1Br)c1cccc(NC(=O)c2ccccc2C(F)(F)F)c1", "IC50", "nM", 65),
    ("O=C(Nc1ccc2ncsc2c1)c1cccc(NC(=O)c2ccccc2Cl)c1", "IC50", "nM", 900),
    ("Cc1ccccc1C(=O)Nc1cccc(C(=O)NC2CCCCCC2)c1", "IC50", "nM", 390),
]

Origin of the recorded values: patent US20100324086A1
